Cited source: PubChem BioAssay (NCATS)

assay: Quantitative High-Throughput drug screen in 47 multiple myeloma cell lines against the NCATS MIPE library collection: PCM6_Riken cell viability assay (AID 1919870); conditions: CellTiter-Glo ATP, 48 h; series mostly up to 45.8 µM; note: nearly all actives have a fitted effect of over 30% in size
Records with an inconclusive call do not appear. Active and inactive are the calls of the source. Calls come from the whole dose curve; as a rule, active = well fitted cell-killing curve with a large enough effect; inconclusive = small, poorly fitted or top-dose-only effect, or effect the other way; inactive = no such curve, though single readings can be large or run the other way.
Please state which outcome applies, choosing from active, inactive

Completed entries (count: 6):
NC[C@H]1O[C@H](O[C@H]2[C@@H](O)[C@@H](O[C@H]3O[C@H](CO)[C@@H](O)[C@H](N)[C@@H]3O)[C@H](N)C[C@@H]2N)[C@H](N)C[C@H]1O :: inactive
CC(C)N(CC[C@H](c1ccccc1)c1cc(CO)ccc1O)C(C)C :: inactive
C[C@@H](Cc1cc2c(c(C(N)=O)c1)N(CCCO)CC2)NCCOc1ccccc1OCC(F)(F)F :: inactive
Cc1[nH]c(C=C2C(=O)Nc3ccccc32)c(C)c1CCC(=O)O :: active
CN1[C@H]2CC(OC(=O)[C@@H](CO)c3ccccc3)C[C@H]1[C@H]1O[C@H]12 (some centres not stated) :: inactive
Cc1nc(NC(=O)N2CCC[C@@H]2C(N)=O)sc1-c1ccnc(C(C)(C)C(F)(F)F)c1 :: inactive

Called result for `Cn1c(Nc2ccc(C(F)(F)F)cc2)nc2cc(Oc3ccnc(-c4ncc(C(F)(F)F)[nH]4)c3)ccc21` active

* * *

assay: Quantitative High-Throughput drug screen in 47 multiple myeloma cell lines against the NCATS MIPE library collection: RPMI8226_ATCC cell viability assay (AID 1919871); conditions: RPMI8226 myeloma viability, CellTiter-Glo ATP luminescence, 48 h; series mostly up to 45.8 µM; note: nearly all actives have a fitted effect of over 30% in size
Inconclusive results are not listed. Activity calls are given as the source filed them. The call rests on the fitted dose curve; in most records, active means well fitted cell-killing curve with a large enough effect; inconclusive means small, poorly fitted or top-dose-only effect, or effect the other way; inactive means no such curve, though single readings can be large or run the other way.
Please state which outcome applies, choosing from true for active, false for inactive

Completed entries (count: 5):
Nc1ccn(C2CO[C@H](CO)O2)c(=O)n1 (stereo partly drawn) :: false
CC(=O)N[C@H]1[C@@H]([C@H](O)[C@H](O)CO)OC(C(=O)O)=C[C@@H]1N=C(N)N :: false
C=C1C(=O)O[C@H]2[C@@H]1CCC(C)=CCC[C@@]1(C)O[C@@H]21 :: true
C[C@@]12C[C@@]3(O)O[C@@H](O1)[C@]1(COC(=O)c4ccccc4)[C@@H]3C[C@@]12O[C@@H]1O[C@H](CO)[C@@H](O)[C@H](O)[C@@H]1O :: false
N#CC(=C(O)c1ccc(Cl)cc1Cl)c1nc2cc(Cl)ccc2c(=O)[nH]1 :: false

Called result for `CN(C)c1ccc2cc(C(=O)N[C@@H](CCCN=C(N)CCl)C(=O)NCc3ccccc3)ccc2c1` true

# iterate: `CC(=O)[C@]1(O)Cc2c(O)c3c(c(O)c2[C@@H](O[C@H]2C[C@H](N)[C@@H](O)[C@H](C)O2)C1)C(=O)c1ccccc1C3=O` true

# iterate: C=C[C@@H]1CN2CCC1C[C@H]2[C@H](O)c1ccnc2ccc(OC)cc12 (stereo partly drawn) false

* * *

experiment: Quantitative High-Throughput drug screen in 47 multiple myeloma cell lines against the NCATS MIPE library collection: INA6_PLB cell viability assay (AID 1918965; note: nearly all actives have a fitted effect of over 55% in size); details: INA6 myeloma viability, CellTiter-Glo ATP luminescence, 48 h; series mostly up to 45.8 µM
Results filed as inconclusive are left out. Active and inactive are the calls of the source. Calls come from the whole dose curve; as a rule, active = well fitted cell-killing curve with a large enough effect; inconclusive = small, poorly fitted or top-dose-only effect, or effect the other way; inactive = no such curve, though single readings can be large or run the other way.
Please state which outcome applies, choosing from true (active), false (inactive)

Completed entries (count: 2):
CN(CC(=O)N(Cc1ccc(C2CCCCC2)cc1)c1ccc(C(=O)O)c(O)c1)S(=O)(=O)c1c(F)c(F)c(F)c(F)c1F :: true
CN[C@H]1[C@@H](O)[C@@H]2O[C@@H]3O[C@H](C)CC(=O)[C@]3(O)O[C@@H]2[C@@H](NC)[C@H]1O :: true

Called result for `COc1cc(C[C@@H](CO)[C@H](CO)Cc2ccc(O)c(OC)c2)ccc1O` true

# iterate: CC(C)C[C@H](NC(=O)CNC(=O)c1cc(Cl)ccc1Cl)B1OC(=O)CC(CC(=O)O)(C(=O)O)O1 (stereo not given in full) true

# iterate: CCC(C(=O)O)C1CCC(C)C(C(C)C(O)C(C)C(=O)C(CC)C2OC3(C=CC(O)[C@@]4(CC[C@](C)(C5CC[C@@](O)(CC)C(C)O5)O4)O3)C(C)CC2C)O1 (stereo not given in full) true

# iterate: `CC(=O)N1CCN(c2ccc(OCc3nn(C)c(C)c3-c3cccc4c(CCCOc5cccc6ccccc56)c(C(=O)O)n(Cc5cccnc5)c34)cc2)CC1` true
